TARGET: SNARE complex (VAMP, syntaxin, SNAP-25) (UniProt P60880)
Sequence (P60880 whole entry, one chain of several): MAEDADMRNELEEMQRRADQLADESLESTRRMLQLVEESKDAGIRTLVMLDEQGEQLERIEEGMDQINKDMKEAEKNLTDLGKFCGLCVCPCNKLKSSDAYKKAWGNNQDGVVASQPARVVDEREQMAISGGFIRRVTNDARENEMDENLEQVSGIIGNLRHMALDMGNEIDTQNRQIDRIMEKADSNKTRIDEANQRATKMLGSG
PROCEDURE DETAILS: SDS-PAGE of SNARE complex (VAMP, syntaxin, SNAP-25), image analysis; compound at 5 mM
OBSERVABLE: % inhibition formation SNARE complex (%)

{"BINDER": "Ac-NHFLNWM-NH2 [Ac-SEQ ID NO: 15-NH2]", "UNIT NAME": "%", "% inhibition formation SNARE complex": 100}
{"BINDER": "Ac-DHFQQRM-NH2 [Ac-SEQ ID NO: 24-NH2]", "UNIT NAME": "%", "% inhibition formation SNARE complex": 100}
{"BINDER": "Ac-QDFLHWM-NH2 [Ac-SEQ ID NO: 2-NH2]", "UNIT NAME": "%", "% inhibition formation SNARE complex": 80}
